Several reports have described IC50 for Human Factor XIIa (Homo sapiens); a selection of those results is presented here.

* Cc1cnc2ccc(OCC34COC(CNc5ccnc(N)c5)(C3)C4)cn12 | 3000 to 10000 nM
* COc1cccnc1CNC(=O)c1nn(-c2cccc(Cl)c2)c2c1CCN(c1cc3c(nn1)CCN(CCO)C3)C2=O | 100 to 300 nM
* Cn1ccc(OCC23CN(C(=O)CCc4cccc5cnccc45)C(CNc4cccc5c(N)nccc45)(C2)C3)cc1=O | 10 to 100 nM
* Nc1nccc2c(NCc3ccnc(OCC4CCn5ccnc5C4)c3)cccc12 (single isomer, unassigned) | 10 to 100 nM
* Cn1c(COc2cc(CNc3cccc4c(N)nccc34)ccn2)nnc1C1CC1 | 1000 to 3000 nM
* Cc1cc(CNC(=O)c2nn(-c3cccc(Cl)c3)c3c2CCN(c2ccc4c(c2)C(=O)N(CCO)CC4)C3=O)nn1C | 10 to 100 nM
* CCNC(=O)c1nn(-c2cc(C)cs2)c2c1CCN(c1ccc3c(c1)C(=O)N(C)CC3)C2=O | 3000 to 10000 nM
* CCNC(=O)c1nn(-c2cc(Cl)cc(CO)c2)c2c1CCN(c1ccc3c(c1)C(=O)N(C)CC3)C2=O | 300 to 1000 nM

Consider the additional molecule presented here.
Exercise: // fetch Human Factor XIIa (Homo sapiens) IC50 for CCOC(=O)c1nn(-c2cccc(Cl)c2)c2c1CCN(c1cccc(-n3ccccc3=O)c1)C2=O
Key: 3000 to 10000 nM

* * *

Several reports have described IC50 for UniProtKB P00748; a selection of those results is presented here.

As a guide, the following entries are already answered.
* Cn1ccc(OCC23CNC(CNc4cccc5c(N)nccc45)(C2)C3)cc1=O | 10 to 100 nM
* Cc1cc(CNC(=O)c2nn(-c3cccc(Cl)c3)c3c2CCN(c2ccc4c(c2)C(=O)N(C2COC2)CC4)C3=O)nn1C | 100 to 300 nM
* CCN1CCc2ccc(N3CCc4c(C(=O)NCc5nn(C)cc5C)nn(-c5cccc(Cl)c5)c4C3=O)cc2C1=O | 100 to 300 nM
* O=C(NCc1ccn(C2CC2)n1)c1nn(-c2cccc(Cl)c2)c2c1CCN(c1ccc3c(c1)C(=O)N(CCO)CC3)C2=O | 100 to 300 nM
* CN1CCc2ccc(N3CCc4c(C(=O)NCCC(=O)O)nn(-c5cccc(Cl)c5)c4C3=O)cc2C1=O | 1000 to 3000 nM

Exercise: // fetch UniProtKB P00748 IC50 for Cc1cc(N2CCn3c(nnc3C(F)(F)F)C2)ncc1CNc1ccnc(N)c1
Key: 10000 to 40000 nM

Exercise: // fetch UniProtKB P00748 IC50 for CN(C)C(=O)c1cc(N2CCc3c(C(=O)NCC4CC4)nn(-c4cccc(Cl)c4)c3C2=O)ccn1
Key: 3000 to 10000 nM

* * *

Several reports have described IC50 for Human Factor XIIa (Homo sapiens); a selection of those results is presented here.

As a guide, the following entries are already answered.
- Cc1cc(CNC(=O)c2nn(-c3cccc(Cl)c3)c3c2CCN(c2ccc4c(c2)C(=O)N(CC(F)F)CCO4)C3=O)n[nH]1: 10 to 100 nM
- Cc1cc(CN)cc(-n2nc(C(=O)O)c3c2C(=O)N(c2ccc4c(c2)C(=O)N(C)CC4)CC3)c1: 10 to 100 nM

Exercise: // fetch Human Factor XIIa (Homo sapiens) IC50 for CN1CCc2ccc(N3CCc4c(C(=O)NCC5CC5)nn(-c5cc(Cl)ccn5)c4C3=O)cc2C1=O
Key: 3000 to 10000 nM

Exercise: // fetch Human Factor XIIa (Homo sapiens) IC50 for CC(=O)N1CCCc2ccc(N3CCc4c(C(=O)NCc5cnccc5C)nn(-c5cccc(Cl)c5)c4C3=O)cc21
Key: 100 to 300 nM

Exercise: // fetch Human Factor XIIa (Homo sapiens) IC50 for CCNC(=O)c1nn(-c2cc(C)ccn2)c2c1CCN(c1ccc3c(c1)C(=O)N(C)CC3)C2=O
Key: 3000 to 10000 nM

Exercise: // fetch Human Factor XIIa (Homo sapiens) IC50 for CC1(C)OC2(COc3cccc4c(N)nccc34)CC1(COc1ccn3ccnc3c1)C2
Key: 300 to 1000 nM

Exercise: // fetch Human Factor XIIa (Homo sapiens) IC50 for COc1ccc(CNC(=O)N2CC3(COc4ccn(C)c(=O)c4)CC2(CNc2cccc4c(N)nccc24)C3)cc1
Key: 10 to 100 nM

Exercise: // fetch Human Factor XIIa (Homo sapiens) IC50 for Cn1ccnc1CCOc1cc(CNc2ccc3c(N)nccc3c2)ccn1
Key: 1000 to 3000 nM

Exercise: // fetch Human Factor XIIa (Homo sapiens) IC50 for CN1CCc2ccc(N3CCc4c(C(=O)O)nn(-c5cccc(Cl)c5)c4C3=O)cc2C1=O
Key: 3000 to 10000 nM

Exercise: // fetch Human Factor XIIa (Homo sapiens) IC50 for Nc1nccc2c(NCC34CC(Cn5ccnc5)(CO3)C4)cccc12
Key: 40000 to 100000 nM

Exercise: // fetch Human Factor XIIa (Homo sapiens) IC50 for Cn1ccc(OCC23CN(CCCc4ccccc4)C(CNc4cccc5c(N)nccc45)(C2)C3)cc1=O
Key: 10 to 100 nM

Exercise: // fetch Human Factor XIIa (Homo sapiens) IC50 for NC(=O)CN1CCc2ccc(N3CCc4c(C(=O)NCC5CC5)nn(-c5cccc(Cl)c5)c4C3=O)cc2C1
Key: 1000 to 3000 nM

* * *

pIC50: −log10 of the molar value.
Several reports have described pIC50 for Human Factor XIIa (Homo sapiens, UniProt P00748); a selection of those results is presented here.

As a guide, the following entries are already answered.
• O=C(NCC1CC1)c1nn(-c2cccc(Cl)c2)c2c1CCN(c1ccc3c(c1)C(=O)N(CCO)CCC3)C2=O = 6.52 to 7.00
• CN1CCc2ccc(N3CCc4c(C(=O)NCCO)nn(-c5cccc(Cl)c5)c4C3=O)cc2C1=O = 6.00 to 6.52

Exercise: Requested read-out: pIC50. Entry: CC(Oc1cc(CNc2ccc3c(N)nccc3c2)ccn1)C1CCN(C)CC1 (stereo not shown)
Key: 6.52 to 7.00

Exercise: Requested read-out: pIC50. Entry: CN1CCc2ccc(N3CCc4c(C(=O)NCC5(CO)CCC5)nn(-c5cccc(Cl)c5)c4C3=O)cc2C1
Key: 6.52 to 7.00

Exercise: Requested read-out: pIC50. Entry: Nc1nccc2c(NCC34CC(COc5ccn6ncnc6c5)(C3)C4)cccc12
Key: 5.00 to 5.52

Exercise: Requested read-out: pIC50. Entry: CN1CCC(CNc2ccc(CNc3ccc4cnccc4c3Cl)cn2)CC1
Key: 5.00 to 5.52

Exercise: Requested read-out: pIC50. Entry: Nc1nccc2c(NCc3ccc(N4CCn5ncc(O)c5C4)nc3)cccc12
Key: 5.00 to 5.52

Exercise: Requested read-out: pIC50. Entry: Nc1nccc2c(NCc3ccc(CCN4CCOCC4)cc3F)cccc12
Key: 6.00 to 6.52

Exercise: Requested read-out: pIC50. Entry: Cc1cc(CNc2cccc3c(N)nccc23)cnc1N1CCn2c(nnc2C(F)(F)F)C1
Key: 4.40 to 5.00

Exercise: Requested read-out: pIC50. Entry: O=C(NCc1ccccc1)c1nn(-c2cccc(Cl)c2)c2c1CCN(c1ccc3c(c1)CN(C1CC1)CC3)C2=O
Key: 6.00 to 6.52

* * *

pIC50: −log10 of the molar value.
Several reports have described pIC50 for UniProt:P00748; a selection of those results is presented here.

As a guide, the following entries are already answered.
* Nc1nccc2c(NCC34CC(COc5ccn6cnnc6c5)(CCO3)C4)cccc12 | 7.00 to 8.00
* Cn1ccc(OCC23CN(C(=O)Cc4cccc5[nH]ccc45)C(CNc4cccc5c(N)nccc45)(C2)C3)cc1=O | 7.00 to 8.00

Exercise: Requested read-out: pIC50. Entry: CN1CCc2ccc(-n3cnc4c(C#N)nn(-c5cccc(Cl)c5)c4c3=O)cc2C1
Key: 6.00 to 6.52

Exercise: Requested read-out: pIC50. Entry: Nc1nccc2c(NCC34CC(Cn5ccnn5)(CO3)C4)cccc12
Key: 4.40 to 5.00

Exercise: Requested read-out: pIC50. Entry: COc1ccc(CNC(=O)c2nn(-c3cccc(Cl)c3)c3c2CCN(c2ccc4c(c2)CN(C)CC4)C3=O)cn1
Key: 7.00 to 8.00

Exercise: Requested read-out: pIC50. Entry: Cn1ccc(OCC23CC(CNc4cccc5c(N)nccc45)(CN2C(=O)Oc2ccccc2Cl)C3)cc1=O
Key: 6.52 to 7.00

Exercise: Requested read-out: pIC50. Entry: Nc1nccc2c(N3CCCC3c3ccc(N4CCn5c(nnc5C(F)(F)F)C4)nc3)cccc12 (single isomer, unassigned)
Key: 5.00 to 5.52
